test: in vivo; conditions: male, Sprague-Dawley, rat, po, 100 mg/kg
MEASUREMENT KIND: half-life (min)

[[record]]
compound = "CC[C@H]1OC(=O)[C@H](C)[C@@H](O[C@H]2C[C@@](C)(OC)[C@@H](O)[C@H](C)O2)[C@H](C)[C@@H](O[C@@H]2O[C@H](C)C[C@H](N(C)C)[C@H]2O)[C@](C)(O)C[C@@H](C)C(=O)[C@H](C)[C@@H](O)[C@]1(C)O [Erythromycin, reference compound]"
measurement_kind = "half-life"
value = 55.8


----------
experiment: in vivo; conditions: Sprague-Dawley, rat, iv
MEASUREMENT KIND: clearance (mL/min/kg)

[[record]]
compound = "CC[C@H]1OC(=O)[C@H](C)[C@@H](O[C@H]2C[C@@](C)(OC)[C@@H](O)[C@H](C)O2)[C@H](C)[C@@H](O[C@@H]2O[C@H](C)C[C@H](N(C)C)[C@H]2O)[C@](C)(O)C[C@@H](C)C(=O)[C@H](C)[C@@H](O)[C@]1(C)O [Erythromycin, reference compound]"
value = 50.2


----------
tested on: Acinetobacter baumannii ATCC-BAA-1605
MEASUREMENT KIND: MIC

[[record]]
compound = "CC[C@H]1OC(=O)[C@H](C)[C@@H](OC2CC(C)(OC)C(O)C(C)O2)[C@H](C)[C@@H](OC2CC(N(C)C)CC(C)O2)[C@@](C)(O)C[C@@H](C)[C@H](O)[C@H](C)[C@@H](O)[C@]1(C)O (stereo partly drawn) [LY101-45]"
experimental_target = "Acinetobacter baumannii ATCC-BAA-1605"
measurement_kind = "MIC"
value = "> 128 µg/mL"

[[record]]
compound = "CC[C@H]1OC(=O)[C@H](C)[C@@H](O[C@H]2C[C@@](C)(OC)[C@@H](O)[C@H](C)O2)[C@H](C)[C@@H](O[C@H]2C[C@@H](N(C)C)C[C@@H](C)O2)[C@](C)(O)C[C@@H](C)C(=O)[C@H](C)[C@@H](O)[C@]1(C)O [LY101-2]"
experimental_target = "Acinetobacter baumannii ATCC-BAA-1605"
measurement_kind = "MIC"
value = "> 128 µg/mL"

[[record]]
compound = "CC[C@H]1OC(=O)[C@H](C)[C@@H](OC2CC(C)(OC)C(O)C(C)O2)[C@H](C)[C@@H](OC2CC(N(C)C(C)=O)CC(C)O2)C(C)(O)C[C@@H](C)C(=O)[C@H](C)[C@@H](O)[C@]1(C)O (stereo in doubt) [LY101-22]"
experimental_target = "Acinetobacter baumannii ATCC-BAA-1605"
measurement_kind = "MIC"
value = "> 128 µg/mL"

[[record]]
compound = "CC[C@H]1OC(=O)[C@H](C)[C@@H](OC2CC(C)(OC)C(O)C(C)O2)[C@H](C)[C@@H](OC2CC(N(C)C)CC(C)O2)[C@@](C)(O)C[C@@H](C)/C(=N\\OCOCCOC)[C@H](C)[C@@H](O)[C@]1(C)O (stereo partly drawn) [LY101-39]"
experimental_target = "Acinetobacter baumannii ATCC-BAA-1605"
measurement_kind = "MIC"
value = "> 128 µg/mL"

[[record]]
compound = "CC[C@H]1OC(=O)[C@H](C)[C@@H](O[C@H]2C[C@@](C)(OC)[C@@H](O)[C@H](C)O2)[C@H](C)[C@@H](O[C@H]2C[C@@H](NC)C[C@@H](C)O2)[C@@](C)(O)C[C@@H](C)C(=O)[C@H](C)[C@@H](O)[C@]1(C)O [LY101-25]"
experimental_target = "Acinetobacter baumannii ATCC-BAA-1605"
measurement_kind = "MIC"
value = "> 128 µg/mL"

[[record]]
compound = "CC[C@H]1OC(=O)[C@H](C)[C@@H](O[C@H]2C[C@@](C)(OC)[C@@H](O)[C@H](C)O2)[C@H](C)[C@@H](O[C@@H]2O[C@H](C)C[C@H](N(C)C)[C@H]2O)[C@](C)(O)C[C@@H](C)C(=O)[C@H](C)[C@@H](O)[C@]1(C)O [Erythromycin, reference compound]"
experimental_target = "Acinetobacter baumannii ATCC-BAA-1605"
measurement_kind = "MIC"
value = "16 µg/mL"

